Tested on: Plasmodium falciparum
Assay: Calibr Malaria Delayed Death Assay SOP
Format: functional, organism-based
Set-up: scale not given: in the data most compounds retested in dose-response had high values
Details: concentration 4.99e-06 (unit not given; other assays of the set use mol/L)
Screen size: about 38,000 compounds; about 1,200 (3.2%) showed an effect of 50% or more. The median lay at about -58%. The list comes from a sample in which strong results are over-represented; it also holds close analogues and randomly drawn compounds.
Assign Percent Effect to each entry below.
# value in %; strip the unit string

Ask | For CCC(Nc1nc(CCN)nc2ccccc12)c1cc(C)ccn1 (configuration not stated) , what is its reported Percent Effect?
Reply | -26.25

Ask | Reported Percent Effect, compound `COc1cc2nc(NCc3scnc3C)nc(N)c2cc1OC` : ____
Reply | 89.32

Ask | Please give the measured Percent Effect for this compound: `CCOc1ccc(OCC)c(NCc2cc(C)on2)c1`
Reply | -105.8

Ask | Give the measured Percent Effect of CCC(Nc1nc(CCN)nc2ccccc12)c1cccs1 (configuration not stated) .
Reply | 62.16

Ask | Recorded Percent Effect for `COc1cc2nc(NCc3cc(C)on3)nc(N)c2cc1OC` , please?
Reply | 61

Ask | Quick one: Percent Effect of `COc1cc2nc(NCc3ccc(C)nc3)nc(N)c2cc1OC` ?
Reply | 90.21

Ask | Would you mind telling me what Percent Effect value was observed for CCC(CC)NC(=O)c1cccnc1N1CCCC1c1ccccn1 (configuration not stated) ?
Reply | -135.6

Ask | Dear colleague, I am looking for the recorded Percent Effect of the following compound: Cc1cc(C(C)(O)CNC(=O)CCn2ccnc2C(C)C)c(C)o1 (configuration not stated)
Reply | -18.43

Ask | Look at this compound and give its reported Percent Effect. COc1ccccc1OCCC(=O)NC1CCc2nc(C)cn2C1 (configuration not stated)
Reply | -82.15

Ask | Which Percent Effect is listed for CC(C)c1nc(C2CCCN2Cc2ccon2)no1 (configuration not stated) ?
Reply | -96.31

Ask | May I ask what Percent Effect has been recorded for COc1cc2c(cc1CNC(=O)Cc1ccc(C)nc1)OC(C)C2 (configuration not stated) ?
Reply | -97.01

Ask | Give its Percent Effect value. Item: O=C(C(c1ccccc1)S(=O)(=O)c1ccccc1)N1CCCCC1 (configuration not stated)
Reply | -134.4

====

Provide the recorded Percent Effect for the entries that follow.
Tested on: Plasmodium falciparum
Assay: Calibr Malaria Delayed Death Assay SOP
Type: functional, organism-based
Design: scale not given: in the data most compounds retested in dose-response had high values
Details: concentration 4.99e-06 (unit not given; other assays of the set use mol/L)
The whole screen tested about 38,000 compounds, of which about 1,200 (3.2%) showed an effect of 50% or more. The median lay at about -58%. The list comes from a sample in which strong results are over-represented; it also holds close analogues and randomly drawn compounds.
Report the value in % with no unit label.

Ask | Find the recorded Percent Effect belonging to CC(Oc1ccc2c(c1)OCO2)C(=O)Nc1ccon1 (stereo unspecified) and report it.
Reply | -56.4

Ask | Would you kindly share the measured Percent Effect for COc1ccc(C(C)=O)cc1CN1CCn2cccc2C1C (stereo unspecified) ?
Reply | -51.16

Ask | So what's the measured Percent Effect for this one? `O=S(=O)(NC1=NCN(CCc2cccs2)CN1)c1ccc(Br)cc1`
Reply | -31.17

Ask | Given the entry `O=S(=O)(c1cc2ccccc2o1)N1CCCC1` , report its measured Percent Effect.
Reply | -30.68

Ask | Which measured Percent Effect value corresponds to `CC(=O)N1CCCN(S(=O)(=O)c2cc3ccccc3o2)CC1` ?
Reply | -136.3

Ask | # query: Percent Effect of entry CC1CN(c2ncccc2C(=O)N[C@@H]2CCCc3ccccc32)CCN1 (stereo partly specified)
Reply | 43.77

Origin of measurements: ChEMBL document CHEMBL3988442
